Each item that follows carries a reported AKR1C3 Relative Activity %.
biological target: AKR1C3 (Homo sapiens, UniProt P42330); assay: In vitro AKR1C3 enzyme activity inhibition (reduction of progesterone to 20α-dihydroprogesterone, LC/MS); assay type: biochemical; conditions: compound at 5 μM/L; remaining enzyme activity relative to negative control, 30 min; Serial No. 36 and 37 are means of four tests
Give just the numeric value; % need not be written.

CN(C)C(=O)c1ccc(Oc2cc(CSP3(=O)NCCCO3)ccc2[N+](=O)[O-])cc1 (stereo not drawn) [Compound #31] | 58.6

Prompt line: Entry CN(C)C(=O)c1ccc(Oc2cc(CSP3(=O)NCCCN3)ccc2[N+](=O)[O-])cc1 [Compound #35] : reported AKR1C3 Relative Activity % = ?
Response line: 80.1

Prompt line: Entry CN(C)C(=O)c1ccc(Oc2cc(CSP3(=O)OCCCN3C)ccc2[N+](=O)[O-])cc1 (stereo not drawn) [Compound #32] : reported AKR1C3 Relative Activity % = ?
Response line: 43.7

Prompt line: Entry CN(C)C(=O)c1ccc(Oc2cc(CSP3(=O)OCCCO3)ccc2[N+](=O)[O-])cc1 [Compound #33] : reported AKR1C3 Relative Activity % = ?
Response line: 41

Prompt line: Entry CC(Oc1c(F)cc(F)cc1F)c1ccc([N+](=O)[O-])c(Oc2cccc(C(=O)N(C)C)c2)c1 (stereo not drawn) [Compound #2] : reported AKR1C3 Relative Activity % = ?
Response line: 78

Prompt line: Entry CNP(=O)(NC)SCc1ccc([N+](=O)[O-])c(Oc2ccc(C(=O)N(C)C)cc2)c1 [Compound #34] : reported AKR1C3 Relative Activity % = ?
Response line: 71.1

* * *

Target: UniProt P42330
Sequence (P42330 1-323): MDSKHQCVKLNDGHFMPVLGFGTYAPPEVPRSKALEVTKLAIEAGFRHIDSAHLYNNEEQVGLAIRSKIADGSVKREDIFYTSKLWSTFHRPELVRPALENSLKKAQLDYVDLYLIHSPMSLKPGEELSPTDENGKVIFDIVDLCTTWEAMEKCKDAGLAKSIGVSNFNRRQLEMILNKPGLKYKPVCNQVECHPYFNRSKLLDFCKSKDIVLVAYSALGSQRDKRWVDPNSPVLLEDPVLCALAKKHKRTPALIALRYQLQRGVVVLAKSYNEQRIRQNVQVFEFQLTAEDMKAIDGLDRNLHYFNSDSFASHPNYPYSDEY
Test: In vitro AKR1C3 enzyme activity inhibition (reduction of progesterone to 20α-dihydroprogesterone, LC/MS)
Type: biochemical
Settings: compound at 5 μM/L; remaining enzyme activity relative to negative control, 30 min; Serial No. 36 and 37 are means of four tests; read-out: AKR1C3 Relative Activity %
Each item that follows carries a reported activity at 5 µM.
Phrase the answer as number then unit, nothing more needed.

O=C(OCc1ccc([N+](=O)[O-])c(Oc2cccc(C(=O)N3CC(F)(F)C3)c2)c1)N1CCOCC1 [Compound #30] | 44.4%
CN(C)C(=O)c1ccc(Oc2cc(COP3(=O)NCCCO3)ccc2[N+](=O)[O-])cc1 (centres unmarked) [Compound #15] | 57.3%
C[C@H](OP(=O)(N1CC1)N1CC1)c1ccc([N+](=O)[O-])c(Oc2cccc(C(=O)N(C)C)c2)c1 [AST-3424, reference compound] | 54.2%
CN(C)C(=O)c1ccc(Oc2cc(COP(=O)(N(C)C)N(C)C)ccc2[N+](=O)[O-])cc1 [Compound #13] | 68.3%
CC(C)OC(=O)OCc1ccc([N+](=O)[O-])c(Oc2ccc(C(=O)N(C)C)cc2)c1 [Compound #28] | 38.6%
CNP(=O)(NC)OCc1ccc([N+](=O)[O-])c(Oc2ccc(C(=O)N(C)C)cc2)c1 [Compound #11] | 35%
CN(C)C(=O)c1ccc(Oc2cc(CSc3ccc(F)cc3F)ccc2[N+](=O)[O-])cc1 [Compound #27] | 28.4%
CN(C)C(=O)c1ccc(Oc2cc(COc3c(F)cc(F)cc3F)ccc2[N+](=O)[O-])cc1 [Compound #9] | 60%
CC(=O)c1ccc(Oc2cc(COP3(=O)NCCCCO3)ccc2[N+](=O)[O-])cc1 (centres unmarked) [Compound #23] | 41.4%
COCCNC(=O)OCc1ccc([N+](=O)[O-])c(Oc2ccc(C(=O)N(C)C)cc2)c1 [Compound #26] | 43.8%

Kindly consider the entry below.
Prompt line: Entry CN(C)C(=O)c1ccc(Oc2cc(COC(=O)N3CCOCC3)ccc2[N+](=O)[O-])cc1 [Compound #25] : reported activity at 5 µM = ?
Response line: 28%
